target: sGC α1/β1 heterodimer (Homo sapiens (Human), UniProt Q02108+Q02153); test: Cell-based sGC functional assay (cyclic GMP assay for sGC activator: CASA assay); conditions: CHO-K1, activity expressed as percentage of compound A (standard); CHO-K1/sGC cells; read-out: % Activation
Sequence (Q02108 whole entry): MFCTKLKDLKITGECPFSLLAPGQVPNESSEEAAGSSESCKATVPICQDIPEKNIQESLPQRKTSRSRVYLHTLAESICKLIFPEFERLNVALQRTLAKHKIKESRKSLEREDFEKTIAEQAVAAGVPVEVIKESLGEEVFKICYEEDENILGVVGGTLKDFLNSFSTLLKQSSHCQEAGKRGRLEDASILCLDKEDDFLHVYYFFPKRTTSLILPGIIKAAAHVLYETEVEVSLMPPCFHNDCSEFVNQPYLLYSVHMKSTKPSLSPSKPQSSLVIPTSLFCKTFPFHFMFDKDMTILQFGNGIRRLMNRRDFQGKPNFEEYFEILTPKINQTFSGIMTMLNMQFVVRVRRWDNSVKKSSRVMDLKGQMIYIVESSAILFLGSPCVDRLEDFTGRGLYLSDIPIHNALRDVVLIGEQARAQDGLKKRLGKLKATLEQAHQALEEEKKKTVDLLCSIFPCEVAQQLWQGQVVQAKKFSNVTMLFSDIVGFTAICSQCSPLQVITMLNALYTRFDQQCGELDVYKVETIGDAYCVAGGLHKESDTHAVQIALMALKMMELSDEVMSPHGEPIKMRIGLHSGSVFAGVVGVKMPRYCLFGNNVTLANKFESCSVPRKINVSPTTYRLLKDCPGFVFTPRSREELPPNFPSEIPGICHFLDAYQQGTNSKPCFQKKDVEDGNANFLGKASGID
Sequence (Q02153 whole entry): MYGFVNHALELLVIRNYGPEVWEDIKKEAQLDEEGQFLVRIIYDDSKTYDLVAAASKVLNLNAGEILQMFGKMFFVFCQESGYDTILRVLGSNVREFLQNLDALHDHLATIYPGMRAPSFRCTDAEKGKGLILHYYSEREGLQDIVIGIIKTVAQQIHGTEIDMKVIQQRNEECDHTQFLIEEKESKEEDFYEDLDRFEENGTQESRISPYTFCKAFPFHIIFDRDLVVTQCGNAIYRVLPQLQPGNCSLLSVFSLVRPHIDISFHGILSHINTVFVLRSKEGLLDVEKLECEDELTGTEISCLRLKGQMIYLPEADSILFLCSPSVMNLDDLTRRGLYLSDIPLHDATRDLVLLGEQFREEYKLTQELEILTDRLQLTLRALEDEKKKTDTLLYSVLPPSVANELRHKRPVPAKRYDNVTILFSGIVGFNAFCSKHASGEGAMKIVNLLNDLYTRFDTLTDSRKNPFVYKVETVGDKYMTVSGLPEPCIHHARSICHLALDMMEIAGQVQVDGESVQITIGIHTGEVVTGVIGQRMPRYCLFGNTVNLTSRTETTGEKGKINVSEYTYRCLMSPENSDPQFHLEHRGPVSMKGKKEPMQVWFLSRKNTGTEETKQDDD
valueType: Emax (%)
Your answer should be a plain number; it is taken to be in %.

Consider the worked cases shown below.
{"compound": "C[C@@]1(c2ccc(CCC(=O)O)cc2)C(=O)Nc2nc(-c3nn(CCC(F)(F)C(F)(F)F)c4cc(F)ccc34)nc(N)c21 [Example 46B]", "Emax (%)": 95}
{"compound": "Cc1cccc(Cn2nc(-c3nc(N)c4c(n3)NC(=O)C4(C)c3nc(CC(C)(C)C(=O)O)co3)c3ccc(F)cc32)c1F (stereo not drawn) [Example 212A]", "Emax (%)": 135}
{"compound": "CC(C)(Cc1csc([C@]2(C)C(=O)Nc3nc(-c4nn(CCC(F)(F)C(F)(F)F)c5ncccc45)nc(N)c32)n1)C(=O)O (single isomer, unassigned) [Example 77B]", "Emax (%)": 105}
{"compound": "CC(C)(Cc1ccc(C2(C)C(=O)Nc3nc(-c4nn(CCCC(F)(F)F)c5ncccc45)nc(N)c32)cc1)C(=O)O (stereo not drawn) [Example 16B]", "Emax (%)": 96}
{"compound": "CC(C)(CCc1coc(C2(C)C(=O)Nc3nc(-c4nn(Cc5ccccc5F)c5cc(F)ccc45)nc(N)c32)n1)C(=O)O (stereo not drawn) [Example 193B]", "Emax (%)": 89.2}

I am curious: what Emax value has been reported for CC1(c2ccc(CCC(=O)O)cn2)C(=O)Nc2nc(-c3nn(Cc4ccccc4F)c4cc(Cl)ccc34)nc(N)c21 (stereo not drawn) [Example 129A] ?
98.5

Next compound: C[C@@]1(c2ccc(CCC(=O)O)cc2)C(=O)Nc2nc(-c3nn(Cc4cccc(F)c4)c4cc(Cl)ccc34)nc(N)c21 [Example 69B]
139

Repeat for the following compound: COCCn1nc(-c2nc(N)c3c(n2)NC(=O)C3(C)c2cccc(CC(C)(C)C(=O)O)c2)c2ccc(Cl)cc21 (stereo not drawn) [Example 39B]
82

Same again, this time with CC(C)(Cc1csc([C@]2(C)C(=O)Nc3nc(-c4nn(CC5CCCC5)c5ncccc45)nc(N)c32)n1)C(=O)O (single isomer, unassigned) [Example 153A]
119

Moving on to CC(C)(Cc1coc(C2(C)C(=O)Nc3nc(-c4nn(Cc5cccc(F)c5)c5cc(F)ccc45)nc(N)c32)n1)C(=O)O (stereo not drawn) [Example 195A]
103

And then Cc1ccc(F)c(Cn2nc(-c3nc(N)c4c(n3)NC(=O)[C@@]4(C)c3nc(CC(C)(C)C(=O)O)cs3)c3ccc(Cl)cc32)c1 (single isomer, unassigned) [Example 214A] , what is it?
116

Here is the next compound: CC(C)(Cc1csc([C@]2(C)C(=O)Nc3nc(-c4nn(CCC(F)(F)C(F)(F)F)c5ncccc45)nc(N)c32)n1)C(=O)NO [Example 97B]
122
